assay: Plasma pharmacokinetics of Rc in rats after repeated iv injection; assay type: in vivo; conditions: rat plasma, Rc 3 mg/kg/day iv for 5 days
Parameter Measured: AUC(0-inf) (µM·h)
Enter your answer as a number in µM·h; do not include the unit.

Query: For CC(C)=CCC[C@](C)(O[C@@H]1O[C@H](CO[C@@H]2O[C@@H](CO)[C@H](O)[C@H]2O)[C@@H](O)[C@H](O)[C@H]1O)[C@H]1CC[C@]2(C)[C@@H]1[C@H](O)C[C@@H]1[C@@]3(C)CC[C@H](O[C@@H]4O[C@H](CO)[C@@H](O)[C@H](O)[C@H]4O[C@@H]4O[C@H](CO)[C@@H](O)[C@H](O)[C@H]4O)C(C)(C)[C@@H]3CC[C@]12C [Rc, ginsenoside Rc] , what is its reported AUC(0-inf)?
Result: 1060

---

assay: in vivo; details: rat, iv, 1 mg/kg, T1/2
Parameter Measured: half-life (h)
Enter your answer as a number in h; do not include the unit.

Query: For CCCCC(=O)N(Cc1ccc(-c2ccccc2-c2nnn[nH]2)cc1)[C@H](C(=O)O)C(C)C [Valsartan, valsartan] , what is its reported half-life?
Result: 4.55

---

biological target: OAT3 (Homo sapiens, UniProt Q8TCC7); assay: Inhibition of OAT3-mediated [3H]ES uptake in HEK293-OAT3 cells
Sequence (Q8TCC7 whole entry): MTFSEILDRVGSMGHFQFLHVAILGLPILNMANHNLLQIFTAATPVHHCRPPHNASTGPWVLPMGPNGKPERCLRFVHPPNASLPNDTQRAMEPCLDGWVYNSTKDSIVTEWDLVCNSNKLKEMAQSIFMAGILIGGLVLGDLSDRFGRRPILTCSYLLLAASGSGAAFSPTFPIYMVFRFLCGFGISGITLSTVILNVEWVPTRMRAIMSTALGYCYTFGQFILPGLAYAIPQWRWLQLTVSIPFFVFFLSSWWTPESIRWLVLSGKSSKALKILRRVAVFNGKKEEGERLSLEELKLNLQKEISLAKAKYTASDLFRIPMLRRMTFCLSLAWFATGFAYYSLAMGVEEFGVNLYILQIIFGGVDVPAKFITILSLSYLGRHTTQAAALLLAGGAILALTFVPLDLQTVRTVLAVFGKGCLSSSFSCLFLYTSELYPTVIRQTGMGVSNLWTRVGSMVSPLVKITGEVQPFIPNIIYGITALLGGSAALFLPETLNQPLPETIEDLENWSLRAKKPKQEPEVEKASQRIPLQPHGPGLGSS
Parameter Measured: IC50

Compound	IC50
CC(C)=CCC[C@](C)(O)[C@H]1CC[C@]2(C)[C@@H]1[C@H](O)C[C@@H]1[C@@]3(C)CC[C@H](O[C@@H]4O[C@H](CO)[C@@H](O)[C@H](O)[C@H]4O)C(C)(C)[C@@H]3CC[C@]12C [Rh2, ginsenoside Rh2]	> 100 µM
CC(C)=CCC[C@](C)(O[C@@H]1O[C@H](CO)[C@@H](O)[C@H](O)[C@H]1O)[C@H]1CC[C@]2(C)[C@@H]1[C@H](O)C[C@@H]1[C@@]3(C)CC[C@H](O[C@@H]4O[C@H](CO)[C@@H](O)[C@H](O)[C@H]4O[C@@H]4O[C@H](CO)[C@@H](O)[C@H](O)[C@H]4O)C(C)(C)[C@@H]3CC[C@]12C [Rd, ginsenoside Rd]	> 100 µM

Query: Record lookup: for OAT3 (Homo sapiens, UniProt Q8TCC7), what IC50 belongs to CC(C)=CCC[C@](C)(O[C@@H]1O[C@H](CO[C@@H]2OC[C@H](O)[C@H](O)[C@H]2O)[C@@H](O)[C@H](O)[C@H]1O)[C@H]1CC[C@]2(C)[C@@H]1[C@H](O)C[C@@H]1[C@@]3(C)CC[C@H](O[C@@H]4O[C@H](CO)[C@@H](O)[C@H](O)[C@H]4O[C@@H]4O[C@H](CO)[C@@H](O)[C@H](O)[C@H]4O)C(C)(C)[C@@H]3CC[C@]12C [Rb2, ginsenoside Rb2] ?
Result: > 100 µM

---

assay: Pharmacokinetics of iv valsartan in rats with or without repeated iv Rc; format: in vivo; conditions: rat, plasma, 1 mg/kg, valsartan 1 mg/kg iv, control group of Rc study
Parameter Measured: Vd
Output should be the measured figure followed by the unit it is expressed in.

Query: For CCCCC(=O)N(Cc1ccc(-c2ccccc2-c2nnn[nH]2)cc1)[C@H](C(=O)O)C(C)C [Valsartan, valsartan] , what is its reported Vd?
Result: 3.43 L/kg

---

assay: Pharmacokinetics of iv valsartan in rats with or without repeated iv Rc; type: in vivo; conditions: rat, plasma, 1 mg/kg, valsartan 1 mg/kg iv, after Rc 3 mg/kg/day iv for 5 days
Parameter Measured: Vd (L/kg)
Enter your answer as a number in L/kg; do not include the unit.

Query: For `CCCCC(=O)N(Cc1ccc(-c2ccccc2-c2nnn[nH]2)cc1)[C@H](C(=O)O)C(C)C` , what is its reported Vd?
Result: 3.46

---

assay: Pharmacokinetics of iv valsartan in rats with or without repeated iv Rc; assay type: in vivo; details: rat, plasma, 1 mg/kg, valsartan 1 mg/kg iv, after Rc 3 mg/kg/day iv for 5 days
Parameter Measured: clearance
Output should be the measured figure followed by the unit it is expressed in.

Query: For `CCCCC(=O)N(Cc1ccc(-c2ccccc2-c2nnn[nH]2)cc1)[C@H](C(=O)O)C(C)C` , what is its reported clearance?
Result: 20.2 mL/min/kg

---

experiment: in vivo; details: rat, iv, 1 mg/kg, AUC24h
Parameter Measured: AUC(0-t)

Query: For `CCCCC(=O)N(Cc1ccc(-c2ccccc2-c2nnn[nH]2)cc1)[C@H](C(=O)O)C(C)C` , what is its reported AUC(0-t)?
Result: 859 ng·h/mL

---

target: OATP1B3 (Homo sapiens, UniProt Q9NPD5); assay: Inhibition of OATP1B3-mediated [3H]estradiol-17β-D-glucuronide uptake in HEK293-OATP1B3 cells; conditions: read-out: IC50 OATP1B3; HEK293-OATP1B3, 0.1 μM [3H]EG uptake, 5 min
Sequence (Q9NPD5 whole entry): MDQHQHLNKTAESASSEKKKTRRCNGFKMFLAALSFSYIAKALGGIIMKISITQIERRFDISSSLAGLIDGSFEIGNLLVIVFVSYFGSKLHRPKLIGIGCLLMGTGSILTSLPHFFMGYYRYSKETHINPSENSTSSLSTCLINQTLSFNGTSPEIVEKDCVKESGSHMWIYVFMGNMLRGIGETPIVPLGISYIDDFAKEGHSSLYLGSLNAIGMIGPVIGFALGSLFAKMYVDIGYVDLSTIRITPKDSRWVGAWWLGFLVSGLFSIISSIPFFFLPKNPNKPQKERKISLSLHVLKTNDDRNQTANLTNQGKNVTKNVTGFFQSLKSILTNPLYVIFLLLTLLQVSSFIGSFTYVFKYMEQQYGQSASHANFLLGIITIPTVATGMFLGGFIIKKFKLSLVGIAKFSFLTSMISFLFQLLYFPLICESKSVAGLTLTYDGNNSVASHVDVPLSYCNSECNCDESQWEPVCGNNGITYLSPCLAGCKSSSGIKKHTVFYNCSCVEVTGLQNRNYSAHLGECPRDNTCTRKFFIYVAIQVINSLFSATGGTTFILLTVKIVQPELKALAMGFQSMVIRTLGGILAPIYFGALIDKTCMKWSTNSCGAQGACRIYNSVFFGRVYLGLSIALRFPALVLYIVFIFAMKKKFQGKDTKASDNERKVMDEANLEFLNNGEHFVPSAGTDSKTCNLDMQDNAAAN
Parameter Measured: pIC50
// pIC50: -log10(molar conc.)

Compound	Val
CC(C)=CCC[C@](C)(O)[C@H]1CC[C@]2(C)[C@@H]1[C@H](O)C[C@@H]1[C@@]3(C)CC[C@H](O)C(C)(C)[C@@H]3[C@@H](O)C[C@]12C [PPT, protopanaxatriol]	4.69
CC(C)=CCC[C@](C)(O[C@@H]1O[C@H](CO)[C@@H](O)[C@H](O)[C@H]1O)[C@H]1CC[C@]2(C)[C@@H]1[C@H](O)C[C@@H]1[C@@]3(C)CC[C@H](O)C(C)(C)[C@@H]3CC[C@]12C [Compound K, compound K]	5.08

Query: For CC(C)=CCC[C@](C)(O)[C@H]1CC[C@]2(C)[C@@H]1[C@H](O)C[C@@H]1[C@@]3(C)CC[C@H](O[C@@H]4O[C@H](CO)[C@@H](O)[C@H](O)[C@H]4O[C@@H]4O[C@H](CO)[C@@H](O)[C@H](O)[C@H]4O)C(C)(C)[C@@H]3CC[C@]12C [Rg3, ginsenoside Rg3] , what is its reported pIC50?
Result: 5.29

---

Target: OAT1 (Homo sapiens, UniProt Q4U2R8)
Sequence (Q4U2R8 1-563): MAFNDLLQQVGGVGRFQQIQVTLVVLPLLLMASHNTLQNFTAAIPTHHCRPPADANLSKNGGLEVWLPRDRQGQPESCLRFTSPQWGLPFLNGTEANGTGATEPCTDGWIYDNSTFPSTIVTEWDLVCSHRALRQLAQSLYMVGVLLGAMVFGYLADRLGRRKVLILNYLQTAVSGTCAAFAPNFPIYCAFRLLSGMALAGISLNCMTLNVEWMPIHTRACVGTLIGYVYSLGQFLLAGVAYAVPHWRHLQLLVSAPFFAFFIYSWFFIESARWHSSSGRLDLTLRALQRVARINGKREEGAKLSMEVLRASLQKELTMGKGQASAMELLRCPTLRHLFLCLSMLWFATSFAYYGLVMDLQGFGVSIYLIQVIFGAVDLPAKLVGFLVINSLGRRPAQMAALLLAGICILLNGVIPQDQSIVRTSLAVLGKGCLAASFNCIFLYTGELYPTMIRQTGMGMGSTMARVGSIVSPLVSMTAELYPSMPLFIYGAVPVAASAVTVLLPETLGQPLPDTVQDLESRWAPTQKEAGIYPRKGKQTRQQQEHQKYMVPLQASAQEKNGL
Assay: Inhibition of OAT1-mediated [3H]PAH uptake in HEK293-OAT1 cells
Source text: HEK293 cells overexpressing the OCT1, OCT2, OAT1, OAT3, OATP1B1, and OATP1B3 transporters (HEK293-OCT1, -OCT2, -OAT1, -OAT3, -OATP1B1, and -OATP1B3, respectively) and HEK293-mock cells (Corning Life Sciences; Woburn, MA, USA) were used and characterized as previously described. […]
Recorded IC50 by entry

Use these answered entries as a reference point.
Compound	System Name	IC50
CC(C)=CCC[C@](C)(O)[C@H]1CC[C@]2(C)[C@@H]1[C@H](O)C[C@@H]1[C@@]3(C)CC[C@H](O[C@@H]4O[C@H](CO)[C@@H](O)[C@H](O)[C@H]4O)C(C)(C)[C@@H]3CC[C@]12C [Rh2, ginsenoside Rh2]	OAT1 (Homo sapiens, UniProt Q4U2R8)	> 100 µM
CC(C)=CCC[C@](C)(O)[C@H]1CC[C@]2(C)[C@@H]1[C@H](O)C[C@@H]1[C@@]3(C)CC[C@H](O)C(C)(C)[C@@H]3[C@@H](O[C@@H]3O[C@H](CO)[C@@H](O)[C@H](O)[C@H]3O)C[C@]12C [Rh1, ginsenoside Rh1]	OAT1 (Homo sapiens, UniProt Q4U2R8)	> 100 µM

Moving on to the next compound.
Query: For CC(C)=CCC[C@](C)(O[C@@H]1O[C@H](CO[C@@H]2OC[C@H](O)[C@H](O)[C@H]2O)[C@@H](O)[C@H](O)[C@H]1O)[C@H]1CC[C@]2(C)[C@@H]1[C@H](O)C[C@@H]1[C@@]3(C)CC[C@H](O[C@@H]4O[C@H](CO)[C@@H](O)[C@H](O)[C@H]4O[C@@H]4O[C@H](CO)[C@@H](O)[C@H](O)[C@H]4O)C(C)(C)[C@@H]3CC[C@]12C [Rb2, ginsenoside Rb2] , what is its reported IC50?
Result: > 100 µM
